pIC50: −log10 of the molar value. Structures can show the parent of a compound that is named as a salt.
Task for the reader: assign each of the following molecules its reported pIC50.

stdin: Give measured pIC50 for O=C(O)c1ccncc1Nc1nn(CCCCCO)c2ccc(F)cc12 (JMJD2C (Homo sapiens (Human), UniProt Q9H3R0)).
stdout: > 7.00

stdin: Give measured pIC50 for O=C(O)c1ccncc1Nc1nn(CCN2CCC(F)(F)C2)c2ccc(F)cc12 (JMJD2C (Homo sapiens (Human), UniProt Q9H3R0)).
stdout: > 7.00

stdin: Give measured pIC50 for O=C(O)c1ccncc1Nc1nn(CCC2CCCNC2)c2ccc(F)cc12 (stereo not shown) [Example 47, trifluoroacetic acid salt] (JMJD2C (Homo sapiens (Human), UniProt Q9H3R0)).
stdout: > 7.00

stdin: Give measured pIC50 for O=C(O)c1ccncc1Nc1nn(CCN2CCOCC2)c2ccc(F)cc12 (JMJD2C (Homo sapiens (Human), UniProt Q9H3R0)).
stdout: > 7.00

stdin: Give measured pIC50 for O=C(O)c1ccncc1Nc1nn(C2CCOC2)c2ccc(F)cc12 (stereo not shown) (JMJD2C (Homo sapiens (Human), UniProt Q9H3R0)).
stdout: > 7.00

stdin: Give measured pIC50 for CN(C)CCOCCn1nc(Nc2cnccc2C(=O)O)c2cc(F)ccc21 [Example 27, acetic acid salt] (JMJD2C (Homo sapiens (Human), UniProt Q9H3R0)).
stdout: > 7.00

stdin: Give measured pIC50 for O=C(O)c1ccncc1Nc1nn(CCN2CCCC2)c2ccc(Cl)cc12 (JMJD2C (Homo sapiens (Human), UniProt Q9H3R0)).
stdout: > 7.00

stdin: Give measured pIC50 for CN1CCC(CCn2nc(Nc3cnccc3C(=O)O)c3cc(F)ccc32)CC1 (JMJD2C (Homo sapiens (Human), UniProt Q9H3R0)).
stdout: > 7.00

stdin: Give measured pIC50 for O=C(O)c1ccncc1Nc1nn(CCCO)c2ccc(F)cc12 (JMJD2C (Homo sapiens (Human), UniProt Q9H3R0)).
stdout: > 7.00

stdin: Give measured pIC50 for CCCn1nc(Nc2cnccc2C(=O)O)c2cccc(C)c21 (JMJD2C (Homo sapiens (Human), UniProt Q9H3R0)).
stdout: 6.00 to 7.00

stdin: Give measured pIC50 for O=C(O)c1ccncc1Nc1nn([C@@H]2CCOC2)c2ccc(F)cc12 (JMJD2C (Homo sapiens (Human), UniProt Q9H3R0)).
stdout: > 7.00

stdin: Give measured pIC50 for CN(C)CCOCCn1nc(Nc2cnccc2C(=O)O)c2cc(Cl)ccc21 [Example 40, trifluoroacetic acid salt] (JMJD2C (Homo sapiens (Human), UniProt Q9H3R0)).
stdout: > 7.00

stdin: Give measured pIC50 for CC(O)Cn1nc(Nc2cnccc2C(=O)O)c2cc(F)ccc21 (stereo not shown) (JMJD2C (Homo sapiens (Human), UniProt Q9H3R0)).
stdout: > 7.00

stdin: Give measured pIC50 for CN(C)CCCCn1nc(Nc2cnccc2C(=O)O)c2cc(F)ccc21 [Example 43, trifluoroacetic acid salt] (JMJD2C (Homo sapiens (Human), UniProt Q9H3R0)).
stdout: > 7.00

stdin: Give measured pIC50 for O=C(O)c1ccncc1Nc1nn([C@H]2CCOC2)c2ccc(F)cc12 (JMJD2C (Homo sapiens (Human), UniProt Q9H3R0)).
stdout: > 7.00

stdin: Give measured pIC50 for N#CNC(=O)c1ccncc1Nc1nn(CCN2CCCC2)c2ccc(F)cc12 (JMJD2C (Homo sapiens (Human), UniProt Q9H3R0)).
stdout: > 7.00
